B1: tRNA (parent)
chain: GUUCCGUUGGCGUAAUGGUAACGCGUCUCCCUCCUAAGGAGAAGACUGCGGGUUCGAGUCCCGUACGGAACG

Variants of: B1
testName: yeast fitness relative to wild type (ratio to wild type); higher = fitter; tRNA-Arg(CCU), competitive growth, 37 C, YPD
Variants at the floor of the assay were thinned out.
Use Condition met when the recorded yeast fitness is no lower than 0.7; use Condition not met when it is lower.

Test whether the variant U8C C27U U32A C66U G67C records yeast fitness of 0.7 or higher.
Condition not met

Test whether the variant A14U A45U G68C records yeast fitness of 0.7 or higher.
Condition not met

Test whether the variant C49U G68U records yeast fitness of 0.7 or higher.
Condition met

Test whether the variant C4G G67A records yeast fitness of 0.7 or higher.
Condition met

Test whether the variant C4A U13C U28A C34G records yeast fitness of 0.7 or higher.
Condition not met

Test whether the variant A15U G51A records yeast fitness of 0.7 or higher.
Condition met

Test whether the variant G17A A37U U47A G68C records yeast fitness of 0.7 or higher.
Condition not met

Test whether the variant C24G A36C A40G A45U records yeast fitness of 0.7 or higher.
Condition not met

Test whether the variant U28C G58C C62G A70U records yeast fitness of 0.7 or higher.
Condition not met

Test whether the variant C29U C30A U59G records yeast fitness of 0.7 or higher.
Condition not met

Test whether the variant G6C U53C records yeast fitness of 0.7 or higher.
Condition met

Test whether the variant U2A U16G C66G G68C records yeast fitness of 0.7 or higher.
Condition not met

Test whether the variant U32A C34A U53C U64A records yeast fitness of 0.7 or higher.
Condition not met

Test whether the variant U32G A42G C46U G51A records yeast fitness of 0.7 or higher.
Condition not met

Test whether the variant C24G G50C records yeast fitness of 0.7 or higher.
Condition not met

Test whether the variant G10C G52C records yeast fitness of 0.7 or higher.
Condition not met

Test whether the variant C5G G68C A69G records yeast fitness of 0.7 or higher.
Condition not met

Test whether the variant C4G U8C C60U G63C G68A records yeast fitness of 0.7 or higher.
Condition not met

Test whether the variant G51A A57U A65U G68A A70U records yeast fitness of 0.7 or higher.
Condition not met

Test whether the variant U16G C34G A42G C49G U64A records yeast fitness of 0.7 or higher.
Condition not met

Test whether the variant U35G C55U records yeast fitness of 0.7 or higher.
Condition not met

Test whether the variant C49G U59G records yeast fitness of 0.7 or higher.
Condition not met

Where do these numbers come from? They come from the RNAGym collection of RNA variant scans (doi:10.1126/science.aae0568).
